- target.or.test.system: AChE (Electrophorus electricus, UniProt O42275)
- Construct: AChE activity isolated from electric eel (purchased); purchased; host or cells: isolated from electric eel
- Sequence (O42275 24-633): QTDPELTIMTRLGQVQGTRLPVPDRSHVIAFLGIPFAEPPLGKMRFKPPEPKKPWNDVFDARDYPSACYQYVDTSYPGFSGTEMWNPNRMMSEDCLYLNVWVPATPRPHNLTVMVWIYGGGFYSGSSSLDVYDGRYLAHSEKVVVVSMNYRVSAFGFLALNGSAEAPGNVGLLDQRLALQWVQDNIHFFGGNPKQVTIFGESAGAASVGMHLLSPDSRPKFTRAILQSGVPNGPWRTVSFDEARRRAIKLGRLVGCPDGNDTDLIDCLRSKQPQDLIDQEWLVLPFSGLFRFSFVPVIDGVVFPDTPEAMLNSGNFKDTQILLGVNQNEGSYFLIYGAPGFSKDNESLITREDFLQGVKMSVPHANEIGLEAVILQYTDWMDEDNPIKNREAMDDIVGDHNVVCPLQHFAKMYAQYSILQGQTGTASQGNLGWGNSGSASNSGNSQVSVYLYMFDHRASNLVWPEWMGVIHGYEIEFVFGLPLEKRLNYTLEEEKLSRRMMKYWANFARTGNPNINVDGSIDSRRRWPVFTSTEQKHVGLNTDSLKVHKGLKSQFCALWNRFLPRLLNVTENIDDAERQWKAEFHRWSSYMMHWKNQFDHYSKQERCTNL
- assay.info: biochemical
- test.context: electric eel AChE, acetylthiocholine iodide/DTNB, 412 nm; mean ± SD; read-out: KI AChE
Catalogue of compounds with associated Ki
For clarity, give the value followed by its unit.

QUERY: I am curious: what Ki value has been reported for NS(=O)(=O)c1ccc(N=Cc2cccc(Cl)c2O)cc1 [Compound 4] ?
RESULT: 27.9 nM

QUERY: I am curious: what Ki value has been reported for NS(=O)(=O)c1cccc(N=Cc2cccc(Br)c2O)c1 [Compound 1] ?
RESULT: 24.3 nM

QUERY: I am curious: what Ki value has been reported for NS(=O)(=O)c1cccc(NCc2cccc(Cl)c2O)c1 [Compound 6] ?
RESULT: 25.7 nM
